B1: C22orf15 (parent)
chain: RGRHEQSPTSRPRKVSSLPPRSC

variants of: B1; assay: protein stability index of a GFP-peptide fusion (GPS, HEK-293T) (PSI 1-6); higher = more stable; conditions: c terminus: native;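 further: lentivirally expressed fusions sorted by FACS into six bins by GFP to DsRed ratio, PSI derived from sequencing read proportions per bin multiplied by bin number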
protein stability index listing for selected variants.
Please reply with the value in numeric form only.

Sample answers from the record:
[[record]]
residue_string = "RGRHEQSPTSRPRKVSSLPPMSC [R21M]"
attribute_measured = "protein stability index"
recorded_result = 3.66

[[record]]
residue_string = "RGRHEQSPTSRPRKVSSLPPREC [S22E]"
attribute_measured = "protein stability index"
recorded_result = 2.6

[[record]]
residue_string = "RGRHEQSPTSRPRKVFSLPPRSC [S16F]"
attribute_measured = "protein stability index"
recorded_result = 3.32

[[record]]
residue_string = "RGRHEQSPTSRPRKVSSLPPDSC [R21D]"
attribute_measured = "protein stability index"
recorded_result = 5.37


Form field: reported protein stability index of RGRHEQSPTSRPRKVSSLPPISC [R21I] 2.83
